# growth per entry
# Test system: UACC-257 melanoma
# assayProtocol: NCI-60 one-dose screen, 48 h (100 = growth as untreated, 0 = no growth, -100 = all killed)
# measurementConditions: 10 µM
This is part of a sample that, as a whole, favours compounds with a hit. Of some 83,000 tested, about 20% had one in any assay.
Express it in %; write the number only.

compound	growth (%)
CN(C)c1ncc(-c2ccc(C(F)(F)F)cc2)c(NC2CCCCCC2)n1	38.1

Could you tell me which growth is on file for CCn1cc(C(=O)O)c(=O)c2cc(F)c(N3CCN(S(=O)(=O)c4ccc(OC)c(OC)c4)CC3)cc21 ?
106

Data request, read-out growth, for COc1cc(CCn2nnc3c(NCCCCO)ncnc32)cc(OC)c1
103

Param item = CC(=O)OCC1OC(OCC2OC(OC(C)=O)C(OC(C)=O)C(OC(C)=O)C2OC(C)=O)C(OC(C)=O)C(OC(C)=O)C1OC(C)=O (stereo not drawn) ; retrieve measured growth.
95.8

Suppose we examine the compound COc1cc(NC(=O)CCl)ccc(=O)c1 ; what growth value has been reported?
66

Which growth is listed for CCCCCCCCCCCCCCCCC(Br)C(=O)O (stereo not drawn) ?
110

Look up growth for this compound: CCOC(=O)[C@H](CSSc1ncnc2cc[nH]c12)NC(=O)[C@@H](C)c1ccc2cc(OC)ccc2c1
28.2

# lookup: growth of COc1cc(OC)c(C(=O)/C=C/c2cccc(C(F)(F)F)c2)c(OC)c1
31.3

Consider the compound COC1=CC(c2ccc[nH]2)=N/C1=C\c1[nH]c(C)c(CCCn2cc(CCCCCCCCC[C@@H]3Cc4cc(O)ccc4C4CC[C@]5(C)[C@@H](O)CC[C@H]5C43)nn2)c1C (stereo partly drawn) and give its measured growth.
98.5

Please report the recorded growth for COc1ccc(/C=C/C(=O)c2cccc(B(O)O)c2)cc1O .
75

Please give the measured growth for this compound: COc1cccc(/C=C2\SC(N3CCN(c4ccccn4)CC3)=NC2=O)c1
101

###

# Tested on: OVCAR-4 ovarian
# assayProtocol: NCI-60 one-dose screen, 48 h (100 = growth as untreated, 0 = no growth, -100 = all killed)
# measurementConditions: 10 µM unless noted
# Method: Growth inhibition of the OVCAR-4 human tumor cell line is measured as a screen for anti-cancer activity. Cells are grown in 96 well plates and exposed to the test compound for 48 hours. Compounds are tested at a single concentration, which is 10^-5 M for most compounds. The reported endpoint is percent growth (GI% or GIPRCNT), where numbers from 0 - 100% represent growth inhibition, and numbers from -100% - 0 represent cell death. For example, a value of 40 represents 60% growth inhibition. […]
About 83,000 compounds went through this panel and 20% of them were active in at least one assay; those are over-represented in the sample as a whole.
quantityMeasured: growth (%)
// note: answer is a bare numeric in %

Form field: reported growth of C=C1C(=O)O[C@H]2[C@H]1CC/C(Cn1cc(-c3ccc(N)cc3)nn1)=C\CC[C@@]1(C)O[C@@H]21
13.6

###

# Tested on: RXF 393 renal
# assayProtocol: NCI-60 one-dose screen, 48 h
# measurementConditions: 10 µM unless noted
Compounds without any hit were thinned out: in the full panel of roughly 83,000, 20% have a hit. Active and inactive are the calls of the source. How the source made its calls: active means growth percent below 10; inactive means the rest.
A correct response names exactly one class from active, inactive

Consider the worked cases shown below.
                                   compound  classification
0  COc1cccc(/C=C/C(=O)c2sc(Nc3ccc(O)cc3)nc2C)c1        inactive
1   COc1ccc(OC)c(C(=O)c2oc3ccc(Br)cc3c2N)c1          active
2  O=S(=O)(NCCCNc1cc(-c2cn(-c3ccccc3)nc2-c2cccc(O)c2)ccn1)c1ccc(Cl)cc1        inactive

Shift focus to the following entry.
Hi, do you know how COc1ccc(/C=C/C(=O)c2cc(OC)c(OC)c(OC)c2)cc1OCc1cn(Cc2ccc(F)cc2)nn1 came out in this test?
inactive

###

# System: NCI/ADR-RES ovarian
# assayProtocol: NCI-60 one-dose screen, 48 h (100 = growth as untreated, 0 = no growth, -100 = all killed)
# measurementConditions: 10 µM unless noted
About 83,000 compounds went through this panel and 20% of them were active in at least one assay; those are over-represented in the sample as a whole.
quantityMeasured: growth (%)
Report as a plain number; the unit % is understood.

The following compounds have reported results that may help.
In [3]: df
Out[3]:
                                   compound  unitsymbol  recordednumber
0  COc1ccc(C(=O)N2CCN(C(=O)c3cc(OC)c(OC)c(OC)c3)CC2)cc1OCCCCOc1cc2c(cc1OC)C(=O)N1CCC[C@H]1C=N2           %             110
1  COc1ccc(S(=O)(=O)N2CCN(c3cc4c(cc3F)c(=O)c(C(=O)O)cn4C3CC3)CC2)c(OC)c1           %             102
2  COc1cc(C(=O)/C=C/c2cc(C(=O)c3cc(OC)c(OC)c(OC)c3)ccc2OC)ccc1N           %            1.57

API: value(readout= growth, system= NCI/ADR-RES ovarian, query= CCOC(=O)C1=C(C)NC(=O)NC1c1ccc(OCC(=O)N/N=C/c2ccc(Cl)cc2)cc1 (centres undefined) )
106

###

# Tested on: SR leukemia
# assayProtocol: NCI-60 one-dose screen, 48 h
# measurementConditions: 10 µM unless noted
Compounds without any hit were thinned out: in the full panel of roughly 83,000, 20% have a hit. The source made the active and inactive calls. Rule for the calls: active = growth percent below 10; inactive = the rest.
Lab note: assign the record to one of active, inactive

A selection of reference data follows.
In [3]: df
Out[3]:
                                smilesinput  classification
0  COc1ccc(-n2cnc3c(sc4ncc(Cl)cc43)c2=O)cc1        inactive
1     Nc1nc(-c2cc3ccccc3o2)cc(=O)c(=O)[nH]1        inactive
2                       Nc1nc(-c2ccccc2)cs1        inactive

Short answer needed: outcome of this test for COc1cc(Cn2c(SCC(=O)Nc3cc(OC)c(OC)c(OC)c3)nc3ccccc3c2=O)cc(OC)c1OC ?
inactive

# fetch the recorded call for ClC1=C(Cl)C(Cl)=C(Cl)C1=Cc1ccc(Cl)cc1Cl here
active

Please state the recorded outcome for this compound: O=[N+]([O-])c1cccc(-c2cc(-c3cc(Br)ccc3O)[nH]n2)c1
inactive

Assay result, entry O=c1oc2c([nH]c3ccc4ccccc4c32)c2ccccc12 — outcome?
inactive

// outcome(item) with item = O=C(O)Cc1ccc2c(c1)Cc1cccnc1O2
inactive

For this compound, state the assay outcome: O=C(Nc1ccc(Br)c(Cl)c1)c1cc(F)ccc1O
active

Give the logged outcome of this assay for the following compound: O=S(=O)(NCCCNc1cc(-c2cn(-c3ccccc3)nc2-c2cccc(O)c2)ccn1)c1cccc(F)c1
inactive

Please share the test call associated with COc1cc(NCCN=C(N)NC(N)=NC(C)C)c2ncccc2c1 .
inactive

###

# System: CAKI-1 renal
# assayProtocol: NCI-60 one-dose screen, 48 h
# measurementConditions: 10 µM unless noted
Compounds without any hit were thinned out: in the full panel of roughly 83,000, 20% have a hit. Calls of active or inactive are those of the source. The calls were made as follows: active = growth percent below 10; inactive = the rest.
API: response.call in active, inactive

Consider the worked cases shown below.
>>> print(df.to_string())
                                   compound  classification
0  O=Nc1c(-c2c(O)[nH]c3ccc([N+](=O)[O-])cc23)[nH]c2ccc(O)cc12          active
1  CC(=O)Nc1ccc(S(=O)(=O)N2C(=O)CCC2C(=O)Nc2ccccc2)cc1 (centres undefined)          active
2  CCC(=O)Oc1ccc2c(c1)CC[C@@H]1[C@@H]2CC[C@]2(C)C[C@H](OC(=O)CC)C[C@@H]12        inactive

Recorded test outcome, item O=C(/C=C/CN1CCOCC1)Nc1cc2c(Nc3ccc(F)c(Cl)c3F)ncnc2cc1OCCOC(F)F
inactive

Each compound tested received a call. Report the one for COc1cccc(-c2nc3sccn3c2-c2ccnc(NCCCNS(=O)(=O)c3ccccc3)n2)c1 .
inactive

Please let me know the test result on file for O=S(=O)(NCCCNc1cc(-c2cn(-c3ccccc3)nc2-c2cccc(O)c2)ccn1)c1ccc(Cl)cc1 .
inactive

Name the outcome recorded for COc1ccc(/C=C/C(=O)c2cc(OC)c(OC)c(OC)c2)cc1OCc1cn(Cc2ccc(F)cc2)nn1 in the assay.
active

State the result this test recorded for COc1ccc(S(=O)(=O)NCCNc2nccc(-c3c(-c4ccccc4)nc4sccn34)n2)cc1 .
inactive

How was COc1cc(OC)c(C(=O)/C=C/c2cccc(C(F)(F)F)c2)c(OC)c1 classified in this test?
inactive
